- system: T1, QP100 (cyno SIRPα (G7PGS8) ECD(E29-R368)-flag-his) (cynomolgus)
- T1 construct: the construct carries flag and his tags; also called cynoSIRPα-flag-his; Cynomolgus SIRPα (QP100)
- T1 chain: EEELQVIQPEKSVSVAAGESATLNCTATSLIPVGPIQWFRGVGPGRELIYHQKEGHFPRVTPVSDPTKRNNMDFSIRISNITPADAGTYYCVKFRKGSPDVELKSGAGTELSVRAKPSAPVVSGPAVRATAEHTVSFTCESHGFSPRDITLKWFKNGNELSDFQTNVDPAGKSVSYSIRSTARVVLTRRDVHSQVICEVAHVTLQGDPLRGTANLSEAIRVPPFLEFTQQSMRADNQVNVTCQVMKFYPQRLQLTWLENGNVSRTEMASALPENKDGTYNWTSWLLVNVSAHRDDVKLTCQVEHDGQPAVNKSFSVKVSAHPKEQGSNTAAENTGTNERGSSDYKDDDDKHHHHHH
- test: binding ELISA, antigen coated
Item-by-item account of EC50
recorded endpoint: EC50 (ng/mL)

1) QP256291 (antibody, human IgG4, V domains shown, Human IgG4 heavy constant region and kappa CL) VH: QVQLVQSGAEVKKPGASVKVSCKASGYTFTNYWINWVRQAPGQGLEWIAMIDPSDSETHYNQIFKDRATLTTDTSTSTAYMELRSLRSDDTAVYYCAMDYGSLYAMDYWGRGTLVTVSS VL: DIVLTQSPDSLAVSLGERATINCRASKSVGSSGYNWLFWYQQKPGQPPKLLIYLASNRDSGVPDRFSGSGSGTDFTLTISSLQAEDVAVYYCQHSRELPTFGQGTKLEIK: 1.18
2) QP2561771 (antibody, human IgG4, V domains shown, Human IgG4 heavy constant region and kappa CL) VH: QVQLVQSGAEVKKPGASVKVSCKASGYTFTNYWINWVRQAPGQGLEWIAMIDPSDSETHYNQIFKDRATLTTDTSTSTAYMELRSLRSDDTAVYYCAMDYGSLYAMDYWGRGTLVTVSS VL: DIVLTQSPDSLAVSLGERATINCRASKSVSSSGYNWIFWYQQKPGQPPKLLIYLASNRDSGVPDRFSGSGSGTDFTLTISSLQAEDVAVYYCQESRELPTFGQGTKLEIK: 1.13
3) QP2561586 (antibody, human IgG4, V domains shown, Human IgG4 heavy constant region and kappa CL) VH: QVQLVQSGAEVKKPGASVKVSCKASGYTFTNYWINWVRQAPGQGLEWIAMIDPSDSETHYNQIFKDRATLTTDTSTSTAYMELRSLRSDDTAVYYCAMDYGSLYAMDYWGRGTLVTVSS VL: DIVLTQSPDSLAVSLGERATINCRASKSVSSSGYNYIFWYQQKPGQPPKLLIYLASNLDSGVPDRFSGSGSGTDFTLTISSLQAEDVAVYYCQESRELPTFGQGTKLEIK: 1.23
